# reported Inhibition of IL-1β Production, compound administered −2 hr relative to LPS challenge; entries follow
system: IL-1β production, LPS-challenged mice; assay: In vivo acute assay for efficacy as anti-inflammatory agent: LPS-induced IL-1β production in mice; set-up: species or system mouse; settings: LPS challenged mice, PO, 50 mg/kg; * = values obtained in subsequent assays (Table 4)
State the answer as a number, implicitly in %.

INPUT: Give the reported Inhibition of IL-1β Production, compound administered −2 hr relative to LPS challenge for this compound. CC(C)OC1OC(=O)C[C@@H]1NC(=O)[C@@H]1CCCN2C(=O)CC[C@H](NC(=O)c3ccccc3)C(=O)N12 (stereo partly drawn) [Compound 2100a]
OUTPUT: 8

INPUT: State its Inhibition of IL-1β Production, compound administered −2 hr relative to LPS challenge for this compound: O=C1C[C@H](NC(=O)[C@@H]2CCCN3C(=O)CC[C@H](NC(=O)c4ccccc4)C(=O)N23)C(OCc2ccccc2)O1 (stereo partly drawn) [Compound 213e]
OUTPUT: 0

INPUT: Provide Inhibition of IL-1β Production, compound administered −2 hr relative to LPS challenge value for the following compound: CC(C)OC(=O)C[C@H](NC(=O)[C@@H]1CCCN2C(=O)CC[C@H](NC(=O)c3ccccc3)C(=O)N12)C(OC(C)C)OC(C)C [Compound 2100d]
OUTPUT: 42

====

Tested on: IL-1β, human peripheral blood mononuclear cells (PBMC)
Experiment: PBMC cell assay: IL-1β assay with human PBMC or enriched adherent mononuclear cells, LPS-stimulated
Assay type: cell-based
Details: Homo sapiens, PBMC, * = values obtained upon reassay
Text: IL-1β Assay with a Mixed Population of Human Peripheral Blood Mononuclear Cells (PBMC) or Enriched Adherent Mononuclear Cells Processing of pre-IL-1β by ICE can be measured in cell culture using a variety of cell sources. Human PBMC obtained from healthy donors provides a mixed population of lymphocyte subtypes and mononuclear cells that produce a spectrum of interleukins and cytokines in response to many classes of physiological stimulators. […]
PROPERTY LABEL: pIC50
In textbook form, pIC50 equals minus log to base ten of the concentration in mol/L.

> print(dat)
                                   compound  property.label  recorded.value
1  O=C[C@H](CC(=O)O)NC(=O)[C@@H]1CCCN2C(=O)CC[C@H](NC(=O)c3cccc4ccccc34)C(=O)N12           pIC50            5.96
2  CC(C)CC(=O)N1C[C@H](NC(=O)c2ccccc2)C(=O)N(CC(=O)N[C@H](C=O)CC(=O)O)c2ccccc21 [Compound 605f]           pIC50            4.90
3  O=C[C@H](CC(=O)O)NC(=O)[C@@H]1CCCN2C(=O)CC[C@H](NS(=O)(=O)c3ccccc3)C(=O)N12           pIC50            5.35
4  O=C[C@H](CC(=O)O)NC(=O)[C@@H]1CCCN2C(=O)CC[C@H](NC(=O)c3ccc(OC(=O)c4ccc(O)cc4)cc3)C(=O)N12           pIC50            5.70

INPUT: State its pIC50 for this compound: `CC(=O)N1C[C@H](NC(=O)c2nccc3ccccc23)C(=O)N(CC(=O)N[C@H](C=O)CC(=O)O)c2ccccc21`
OUTPUT: 6.00
